Test: activity coefficient (dimensionless); of the first substance listed, at infinite dilution; xn = mol fraction of the nth substance listed
Conditions: 368.15 K; 101.33 kPa; Liquid; Chromatography; x1 = 0
Flag rule - activity coefficient less than 4 flags met; the remaining entries get not met.

| compound | discreteLabel |
| --- | --- |
| CC(C)c1ccccc1 [isopropylbenzene] + CC[N+]1(C)CCOCC1.N#CN=C=[N-] | not met |
| O [water] + CC[N+]1(C)CCOCC1.N#CN=C=[N-] | met |
| CCOCC [diethyl ether] + CC[N+]1(C)CCOCC1.N#CN=C=[N-] | not met |
| CCCCCCCCC [nonane] + CC[N+]1(C)CCOCC1.N#CN=C=[N-] | not met |
| COC(C)=O [methyl ethanoate] + CC[N+]1(C)CCOCC1.N#CN=C=[N-] | met |
| CCC(C)O (stereo not drawn) [butan-2-ol] + CC[N+]1(C)CCOCC1.N#CN=C=[N-] | met |
| CC(C)(C)O [2-methylpropan-2-ol] + CC[N+]1(C)CCOCC1.N#CN=C=[N-] | met |
| Cc1ccccc1C [1,2-dimethylbenzene] + CC[N+]1(C)CCOCC1.N#CN=C=[N-] | not met |
| CCC(=O)OC [methyl propanoate] + CC[N+]1(C)CCOCC1.N#CN=C=[N-] | not met |
| CCCCCCCC [octane] + CC[N+]1(C)CCOCC1.N#CN=C=[N-] | not met |
| C1CCCCCCC1 [cyclooctane] + CC[N+]1(C)CCOCC1.N#CN=C=[N-] | not met |
| C#CCCC [1-pentyne] + CC[N+]1(C)CCOCC1.N#CN=C=[N-] | not met |
| CCc1ccccc1 [ethylbenzene] + CC[N+]1(C)CCOCC1.N#CN=C=[N-] | not met |
| C1CCCCC1 [cyclohexane] + CC[N+]1(C)CCOCC1.N#CN=C=[N-] | not met |
| C1COCCO1 [1,4-dioxane] + CC[N+]1(C)CCOCC1.N#CN=C=[N-] | met |
| c1ccsc1 [thiophene] + CC[N+]1(C)CCOCC1.N#CN=C=[N-] | met |
| CCO [ethanol] + CC[N+]1(C)CCOCC1.N#CN=C=[N-] | met |
| CCCCCO [pentan-1-ol] + CC[N+]1(C)CCOCC1.N#CN=C=[N-] | not met |

* * *

Experiment: activity coefficient (dimensionless); of the first substance listed, at infinite dilution; xn = mol fraction of the nth substance listed
Conditions: 328.15 K; 101.33 kPa; Liquid; Chromatography; x1 = 0
Each record here notes measured activity coefficient.

| molecule | activity coefficient |
| --- | --- |
| Cc1ccccc1C [1,2-dimethylbenzene] + CC[N+]1(C)CCOCC1.N#CN=C=[N-] | 11.1 |
| CC(C)O [propan-2-ol] + CC[N+]1(C)CCOCC1.N#CN=C=[N-] | 2 |
| C#CCCCCC [1-heptyne] + CC[N+]1(C)CCOCC1.N#CN=C=[N-] | 46.3 |
| Cc1cccc(C)c1 [1,3-dimethylbenzene] + CC[N+]1(C)CCOCC1.N#CN=C=[N-] | 14.1 |
| CCCCCCCCC [nonane] + CC[N+]1(C)CCOCC1.N#CN=C=[N-] | 1350 |

* * *

Test: activity coefficient (dimensionless); of the first substance listed, at infinite dilution; xn = mol fraction of the nth substance listed
Details: 358.15 K; 101.33 kPa; Liquid; Chromatography; x1 = 0

| molecule | activity coefficient |
| --- | --- |
| C1CCCCCC1 [cycloheptane] + CC[N+]1(C)CCOCC1.N#CN=C=[N-] | 169 |
| C=COC(C)=O [vinyl acetate] + CC[N+]1(C)CCOCC1.N#CN=C=[N-] | 4.97 |
| Cc1ccccc1C [1,2-dimethylbenzene] + CC[N+]1(C)CCOCC1.N#CN=C=[N-] | 12 |
| c1ccccc1 [benzene] + CC[N+]1(C)CCOCC1.N#CN=C=[N-] | 5.05 |
| CC#N [acetonitrile] + CC[N+]1(C)CCOCC1.N#CN=C=[N-] | 1.16 |
| CCCC(C)=O [pentan-2-one] + CC[N+]1(C)CCOCC1.N#CN=C=[N-] | 5.81 |
| CCOCC [diethyl ether] + CC[N+]1(C)CCOCC1.N#CN=C=[N-] | 30.8 |
| CO [methanol] + CC[N+]1(C)CCOCC1.N#CN=C=[N-] | 0.672 |
| CCCOCCC [dipropyl ether] + CC[N+]1(C)CCOCC1.N#CN=C=[N-] | 116 |
| CCCC=O [butanal] + CC[N+]1(C)CCOCC1.N#CN=C=[N-] | 4.04 |
| CCC(=O)CC [pentan-3-one] + CC[N+]1(C)CCOCC1.N#CN=C=[N-] | 6.03 |
| C#CCCCC [1-hexyne] + CC[N+]1(C)CCOCC1.N#CN=C=[N-] | 28.1 |
| CCOC(C)(C)C [2-ethoxy-2-methylpropane] + CC[N+]1(C)CCOCC1.N#CN=C=[N-] | 113 |
| C1CCCCC1 [cyclohexane] + CC[N+]1(C)CCOCC1.N#CN=C=[N-] | 115 |
| C=Cc1ccccc1 [styrene] + CC[N+]1(C)CCOCC1.N#CN=C=[N-] | 7.22 |
| CC(C)c1ccccc1 [isopropylbenzene] + CC[N+]1(C)CCOCC1.N#CN=C=[N-] | 26.9 |
| CC(C)(C)O [2-methylpropan-2-ol] + CC[N+]1(C)CCOCC1.N#CN=C=[N-] | 2.83 |
| C#CCCCCCC [1-octyne] + CC[N+]1(C)CCOCC1.N#CN=C=[N-] | 86.1 |
| CCCCCCCC [octane] + CC[N+]1(C)CCOCC1.N#CN=C=[N-] | 737 |
| Cc1ccccc1 [toluene] + CC[N+]1(C)CCOCC1.N#CN=C=[N-] | 8.77 |
